- Test system: OVCAR-8 ovarian
- assay.protocol: NCI-60 one-dose screen, 48 h
- particulars: 10 µM unless noted
Compounds without any hit were thinned out: in the full panel of roughly 83,000, 20% have a hit. Activity calls are given as the source filed them. How the source made its calls: active means growth percent below 10; inactive means the rest.
Outcome codes: active, inactive

1. C=CCn1c(CN2CCN(c3cc4c(cc3F)c(=O)c(C(=O)O)cn4C3CC3)CC2)n[nH]c1=S | inactive
2. CC(=O)c1cc2c(N)c(C(=O)Nc3ccccn3)sc2nc1C | inactive
3. COc1cc(C(=O)Nc2cc(OC)c3ccn(C)c3c2)cc2c1C[C@]1(C)CC[C@@H](O)C(C)(C)[C@H]1O2 | inactive
4. Nc1c(C(=O)Nc2cccc3ccccc23)sc2nc3c(cc12)CCCCC3 | inactive
5. NC(=O)c1ccc(C2C3=C(CCCC3=O)OC3=C2C(=O)c2ccccc2C3=O)cc1 (configuration not stated) | active
6. COc1ccc(-c2[nH]c3ccc(OC)cc3c2C=C(C#N)C#N)cc1 | inactive
7. COC(=O)c1ccc2c(c1)NC(=O)[C@@H]1CCCN21 | inactive
8. O=C(CSC(=S)N1CCCCC1)Nc1ccccc1 | inactive
9. CN(C)CCCn1c2c(c3cc(-c4ccco4)ccc3c1=O)C(=O)c1ccccc1-2 | inactive
10. COc1ccc(NC(=O)c2ccc(Nc3ncnc4[nH]c(C)c(C)c34)cc2)cc1 | inactive
11. CC(=O)OCC1OC(OC2C(COC(C)=O)OC(OCCC[S-])C(OC(C)=O)C2OC(C)=O)C(OC(C)=O)C(OC(C)=O)C1OC(C)=O.[Au+].c1ccc(CN2[CH-]N(Cc3ccccc3)C(c3ccccc3)=C2c2ccccc2)cc1 (configuration not stated) | inactive
12. C/C(=N/Nc1nc2ccccc2n1C)c1ccccn1 | active
13. COc1ccc2nc(-c3ccc(Cl)cc3)cc(-c3nnc(SC/C(=N/O)c4ccccc4)o3)c2c1 | inactive
14. N#Cc1c(-c2ccc(F)cc2)nc(N=Nc2c(O)[nH]c3ccc(Cl)cc23)nc1N1CCOCC1 | inactive
15. CCOC(=O)c1c(C)nc2c(c1N)/C(=C/c1cccs1)C(=O)N2Cc1ccccc1 | inactive
16. CC(C)NS(=O)(=O)c1cccc(-c2ccc3c(=O)n(CCCN)c4c(c3c2)C(=O)c2ccccc2-4)c1 | inactive
17. O=C(/C(=C\c1c(-c2ccccc2)[nH]c2ccccc12)S(=O)(=O)c1ccccc1)c1ccccc1 | inactive

---

- Tested on: SF-268 CNS
- assay.protocol: NCI-60 one-dose screen, 48 h (100 = growth as untreated, 0 = no growth, -100 = all killed)
- particulars: 10 µM unless noted
The panel holds about 83,000 compounds, 20% with a hit somewhere; the sample as a whole holds those more often. Activity calls are given as the source filed them. Rule for the calls: active = growth percent below 10; inactive = the rest.
measured.endpoint: growth

1) C[C@]12CC[C@@H]3c4ccc(O)cc4CC[C@H]3[C@@H]1C[C@H](O)C2 | 78.4% (inactive)
2) COc1ccc(/C=C/C(=O)c2ccc(NC(=O)CSc3nnc(-c4ccc(OC)c(OC)c4)n3-c3ccccc3)cc2)cc1 | 80.6% (inactive)
3) O=C(Nc1ccc2ncnc(Nc3ccc(F)c(Cl)c3)c2c1)c1ccccc1 | 67.1% (inactive)
4) N#Cc1nc(-c2ccccc2)oc1S(=O)(=O)NCC(c1ccc(Cl)cc1)N1CCCCC1 (stereo not given) | 78% (inactive)
5) O=C1NC(c2ccc(F)cc2)N=C2C(c3ccccc3)=NOC12 (stereo not given) | 107% (inactive)
6) O=C1CC(c2ccc(O)c(O)c2)Oc2cc(O)c([C@@H]3O[C@H](CO)[C@@H](O)[C@H](O)[C@H]3O)c(O)c21 (stereo not given in full) | 102% (inactive)
7) COc1ccc(NC(=O)c2sc3nc(C)c(C(C)=O)cc3c2N)cc1 | 102% (inactive)
8) C/C(=C\c1cnc(C)s1)[C@@H]1C[C@@H]2O[C@@H]2CCC[C@H](C)[C@H](O)[C@@H](C)C(=O)C(C)(C)[C@@H](O)CC(=O)O1 | 51.7% (inactive)
9) CCN1CCC[C@H]1c1cc(O)c2c(c1OC)C[C@H]1C[C@H]3[C@H](N)C(=O)C(C(N)=O)=C(O)[C@@]3(O)C(=O)C1=C2O | 2.64% (active)
10) COc1ccc2nc(-c3ccc(OC)c(OC)c3)cc(-c3nnc(SCC(=O)Nc4ccc(/C(C)=N\O)cc4)n3-c3ccccc3)c2c1 | 78.1% (inactive)
11) O=C(NC[C@H](O)CN1CCc2ccccc2C1)c1cc(NC2COC2)ncn1 | 86% (inactive)
12) c1ccc(-c2n(Cc3ccc4ccccc4n3)cc[n+]2Cc2ccc3ccccc3n2)cc1 | 41.8% (inactive)
13) Cc1cnc(-c2ccc(-c3ccc(NC(=O)Nc4c(F)cc(F)cc4F)cc3F)c3c2C(=O)NC3)[nH]1 | 39.2% (inactive)
14) COc1ccc(C(=O)c2cc(F)c(F)c(OC)c2F)cc1OC(=O)CCl | 58.7% (inactive)
15) Cc1cccc(C)c1Nc1nnc(-c2ccc(F)cc2)o1 | 96.2% (inactive)
16) COC(=O)CCc1cc(O)c2c(c1)[C@@H](C(=O)OC)[C@H](c1ccc(O)c(O)c1)O2 | 74.1% (inactive)
17) COc1cc2cc(c1Cl)N(C)C(=O)C[C@H](OC(=O)[C@H](C)N(C)C(=O)CCS)C[C@]1(C)O[C@H]1[C@H](C)[C@@H]1C[C@@](O)(NC(=O)O1)[C@H](OC)/C=C/C=C(\C)C2 | 37.1% (inactive)
18) COc1cc2nc3c(=O)n(-c4ccc(C#N)cc4)cnn3c(=O)c2cc1OC | 88.5% (inactive)
19) C=C1C(=O)O[C@H]2[C@H]1CC/C(C=Nc1c(N)cc(F)cc1Br)=C\CC[C@@]1(C)O[C@@H]21 | 83.1% (inactive)
20) O=C1CC23OC(C(O)c4ccccc4N12)C1C(c2ccccc2)=NOC13 (stereo not given) | 64.1% (inactive)
21) C1=CC2=CC=C3C=CC=C4C(c5nc6c7ccccc7c7ccccc7c6[nH]5)=CC(=C1)C2C34 (stereo not given) | 85.4% (inactive)
22) Nc1c(C(=O)Nc2cccc3ccccc23)sc2nc3c(cc12)CCCCC3 | 46.3% (inactive)
23) C=C(C)[C@@H]1CC[C@]2(C(=O)OCCCC[P+](c3ccccc3)(c3ccccc3)c3ccccc3)CC[C@]3(C)[C@H](CC[C@@H]4[C@@]5(C)CC[C@H](OC(=O)C(Cl)Cl)C(C)(C)[C@@H]5CC[C@]43C)[C@@H]12 | -15.7% (active)
24) O=C1CCc2ccccc2N1 | 97.4% (inactive)
25) CN(C)C1=NCCN1 | 104% (inactive)

---

- Tested on: SF-539 CNS
- assay.protocol: NCI-60 one-dose screen, 48 h (100 = growth as untreated, 0 = no growth, -100 = all killed)
- particulars: 10 µM unless noted
- Description: Cells are grown in 96 well plates and exposed to the test compound for 48 hours. Compounds are tested at a single concentration, which is 10^-5 M for most compounds. The reported endpoint is percent growth (GI% or GIPRCNT), where numbers from 0 - 100% represent growth inhibition, and numbers from -100% - 0 represent cell death. For example, a value of 40 represents 60% growth inhibition. A value of 0 means no net growth occurred over the course of the experiment. […]
About 83,000 compounds went through this panel and 20% of them were active in at least one assay; those are over-represented in the sample as a whole.
growth values by entry
measured.endpoint: growth (%)

1) O=C(Nc1ccccc1)NS(=O)(=O)c1c[nH]c(=S)[nH]c1=O | 99.8
2) Cc1cc(C)n(-c2nc(-c3cccs3)c(C#N)c(=O)[nH]2)n1 | 97.5
3) Cc1cc(NC(=O)CNc2nc(Oc3ccc(F)cc3)nc(-c3ccc(F)cc3)n2)ccc1Cl | 109
4) Cc1cc(C)cc(Nc2nccc(-c3c(-c4ccc(F)cc4)ncn3C3CCNCC3)n2)c1 | 31.3
5) COC(=O)c1cc2c3c(cc(O)c2[nH]1)N(C(=O)C1Cc2cc(OC)c(OC)c(OC)c2N1)CC3CCl (stereo not drawn) | -74.7
6) CC1CCN(CCCCCOc2ccc3oc4cc(Cl)ccc4c(=O)c3c2)CC1 | 40.6
7) COc1ccc(C(C)c2cc(OC)c(OC)c(OC)c2)cc1 (stereo not drawn) | -7.56
8) O=C(CCc1nnco1)c1nc2ccc([N+](=O)[O-])cc2[nH]1 | 104
9) COc1ccc(-n2cc(COc3ccc4c5ccnc(C)c5n(CC(C)C)c4c3)nn2)cc1 | 82.6
10) O=C1NN(c2ccccc2)C(c2ccc3c(c2)OCO3)N2CCC[C@@H]12 (stereo partly drawn) | 111
11) Cc1ccc(CS/C(=C\c2ccc([N+](=O)[O-])cc2)C(=O)c2ccc(F)cc2)cc1 | 98.1
12) Cc1ccc2nc3nc4ccc[nH]c4cc3c2c1 | 83.5
13) O=C(Nc1cc(=O)[nH]c(=O)[nH]1)C(Cl)Cl | 106
